Assay explanation: qHTS of pediatric cancer cell lines to identify multiple opportunities for drug repurposing: Primary screen for OHS-50 cells (AID 1347103); also: nearly all actives have a fitted effect of over 40% in size
Measurement setup: OHS-50 osteosarcoma viability, CellTiter-Glo luminescence, 48 h; series mostly up to 57.3 µM
Results filed as inconclusive are left out. Activity calls are given as the source filed them. Calls follow the shape of the dose curve; as a rule, active = well fitted cell-killing curve with a large enough effect; inconclusive = small, poorly fitted or top-dose-only effect; inactive = no such curve, though single readings can be large or run the other way. Peptide text beside a SMILES is read from it.
Labels: active, inactive

In [3]: df
Out[3]:
                                   compound  discrete_label
0  COC(=O)[C@H](Cc1ccccc1)NC(=O)[C@@H](N)CC(=O)O (H-Asp-Phe-OMe)        inactive
1  C[C@@H](N)C1CCC(C(=O)Nc2ccncc2)CC1 (stereo partly specified)        inactive
2                   CC(C)(S)[C@@H](N)C(=O)O        inactive
3           Cc1ccc(C)c(OCCCC(C)(C)C(=O)O)c1        inactive
4  Clc1ccc2c(N3CCN(CCCN4CCN(c5ccnc6cc(Cl)ccc56)CC4)CC3)ccnc2c1        inactive
5  Cc1ccc(NC(=O)c2ccc(CN3CCN(C)CC3)cc2)cc1Nc1nccc(-c2cccnc2)n1          active

Entry source: PubChem BioAssay (NCATS)
